# experimental-target: UniProtKB Q8E9G0
# Sequence (Q8E9G0 225-639): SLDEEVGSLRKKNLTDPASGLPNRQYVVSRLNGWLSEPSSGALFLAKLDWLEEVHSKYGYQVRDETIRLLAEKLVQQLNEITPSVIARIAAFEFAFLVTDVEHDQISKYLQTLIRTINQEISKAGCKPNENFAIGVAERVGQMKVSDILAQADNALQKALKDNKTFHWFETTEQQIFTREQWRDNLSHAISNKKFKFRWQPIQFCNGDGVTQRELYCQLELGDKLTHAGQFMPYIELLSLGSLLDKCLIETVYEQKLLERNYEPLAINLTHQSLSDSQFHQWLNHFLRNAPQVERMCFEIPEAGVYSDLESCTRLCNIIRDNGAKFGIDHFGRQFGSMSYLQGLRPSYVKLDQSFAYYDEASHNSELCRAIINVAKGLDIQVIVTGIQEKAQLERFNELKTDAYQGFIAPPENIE
value-kind: Kd
Put your answer as a value accompanied by its unit after it.

For the compound `Nc1nc2c(ncn2[C@@H]2O[C@@H]3CO[P@](=O)(O)O[C@H]4[C@@H](O)[C@H](n5cnc6c(=O)[nH]c(N)nc65)O[C@@H]4CO[P@](=O)(O)O[C@H]3[C@H]2O)c(=O)[nH]1` , what Kd is on record?
4.38 µM
